All values here come from patent US11912703B2.

biological target: human TLR9 (Homo sapiens (Human)); test: TLR9 inhibition reporter assay (HEK-Blue SEAP); details: read-out: TLR9 IC50; HEK-Blue cells overexpressing human TLR9; ODN2006 5 nM stimulation; SEAP reporter;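 also: SEAP driven by IFN-β minimal promoter carrying five NF-κB and AP-1 sites, 22 h at 37 °C, compounds 0.05 nM–50 µM, inhibition scaled between agonist-plus-DMSO and reference-inhibitor wells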
Sequence (Q9NR96 26-1032): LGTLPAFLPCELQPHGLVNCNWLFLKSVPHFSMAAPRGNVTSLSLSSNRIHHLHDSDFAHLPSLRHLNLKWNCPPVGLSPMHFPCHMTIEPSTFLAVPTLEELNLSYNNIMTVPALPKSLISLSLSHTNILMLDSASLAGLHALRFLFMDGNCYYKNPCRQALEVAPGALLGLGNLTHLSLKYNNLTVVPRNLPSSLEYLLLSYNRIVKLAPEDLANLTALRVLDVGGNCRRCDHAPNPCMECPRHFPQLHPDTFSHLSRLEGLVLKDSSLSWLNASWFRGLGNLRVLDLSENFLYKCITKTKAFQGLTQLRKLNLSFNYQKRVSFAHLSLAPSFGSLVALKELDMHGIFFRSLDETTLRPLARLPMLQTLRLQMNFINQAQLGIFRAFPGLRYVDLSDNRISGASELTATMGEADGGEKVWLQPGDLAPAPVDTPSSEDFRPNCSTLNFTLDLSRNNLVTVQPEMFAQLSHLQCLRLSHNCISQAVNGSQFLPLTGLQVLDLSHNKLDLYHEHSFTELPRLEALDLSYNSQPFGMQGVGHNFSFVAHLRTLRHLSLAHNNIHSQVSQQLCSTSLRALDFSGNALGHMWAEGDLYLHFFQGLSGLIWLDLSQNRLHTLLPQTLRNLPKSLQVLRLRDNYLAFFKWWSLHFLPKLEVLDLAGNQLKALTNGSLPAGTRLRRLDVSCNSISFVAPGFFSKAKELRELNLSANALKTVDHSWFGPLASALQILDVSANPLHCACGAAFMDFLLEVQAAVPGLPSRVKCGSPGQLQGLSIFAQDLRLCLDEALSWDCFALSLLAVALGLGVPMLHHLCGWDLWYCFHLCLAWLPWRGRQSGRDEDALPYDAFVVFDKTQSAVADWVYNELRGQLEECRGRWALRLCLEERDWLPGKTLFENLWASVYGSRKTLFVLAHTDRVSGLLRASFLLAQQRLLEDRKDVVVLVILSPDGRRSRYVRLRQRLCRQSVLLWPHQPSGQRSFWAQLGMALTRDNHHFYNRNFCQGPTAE
reported.property: IC50 (nM)
Give just the numeric value; nM need not be written.

Noted for Cc1cc(-c2[nH]c3cnc(C4CCN(CC5(C)COC5)CC4)c(F)c3c2C(C)C)cc(C)n1 : its IC50 reads 2000

Lab note: measured IC50 of Cc1c(-c2[nH]c3cnc(C4CCC(N5CCC5)CC4)c(F)c3c2C(C)C)cn2ncnc2c1C (stereo not drawn) was 1160

###

For each of the compounds below, state its IC50.
target: human TLR7 (Homo sapiens (Human), UniProt Q9NYK1); assay: TLR7 inhibition reporter assay (HEK-Blue SEAP); conditions: HEK-Blue cells overexpressing human TLR7, gardiquimod 7.5 μM stimulation
Sequence (Q9NYK1 27-1049): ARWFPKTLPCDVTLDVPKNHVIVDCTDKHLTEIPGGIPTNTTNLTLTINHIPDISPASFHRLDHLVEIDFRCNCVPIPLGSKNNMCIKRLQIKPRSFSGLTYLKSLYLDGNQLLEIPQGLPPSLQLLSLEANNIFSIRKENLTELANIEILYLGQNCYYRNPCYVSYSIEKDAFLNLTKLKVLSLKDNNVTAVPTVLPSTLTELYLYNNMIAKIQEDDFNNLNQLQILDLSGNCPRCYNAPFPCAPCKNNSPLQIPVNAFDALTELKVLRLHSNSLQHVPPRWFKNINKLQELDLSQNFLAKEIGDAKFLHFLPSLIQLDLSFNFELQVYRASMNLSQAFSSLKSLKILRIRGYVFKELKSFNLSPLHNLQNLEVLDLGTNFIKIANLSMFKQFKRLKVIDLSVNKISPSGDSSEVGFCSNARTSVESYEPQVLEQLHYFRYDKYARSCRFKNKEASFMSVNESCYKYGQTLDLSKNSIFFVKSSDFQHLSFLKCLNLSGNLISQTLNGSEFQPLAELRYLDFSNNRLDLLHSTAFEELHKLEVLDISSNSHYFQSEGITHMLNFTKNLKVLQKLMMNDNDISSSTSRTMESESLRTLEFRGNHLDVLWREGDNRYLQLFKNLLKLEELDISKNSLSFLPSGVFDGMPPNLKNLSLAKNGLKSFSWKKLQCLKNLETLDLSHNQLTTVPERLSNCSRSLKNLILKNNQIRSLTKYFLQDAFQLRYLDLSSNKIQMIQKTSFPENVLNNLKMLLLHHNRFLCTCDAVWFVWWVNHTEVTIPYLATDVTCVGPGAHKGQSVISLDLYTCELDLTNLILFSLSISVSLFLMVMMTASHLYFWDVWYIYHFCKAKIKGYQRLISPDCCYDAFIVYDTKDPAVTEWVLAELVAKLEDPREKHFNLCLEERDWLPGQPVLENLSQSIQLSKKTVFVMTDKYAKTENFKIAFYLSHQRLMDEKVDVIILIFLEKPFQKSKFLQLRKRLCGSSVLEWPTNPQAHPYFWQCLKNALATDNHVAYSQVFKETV
Report as a plain number; the unit nM is understood.

// Cc1c(-c2[nH]c3cnc(C4CCC(NCC5(C)COC5)CC4)c(F)c3c2C(C)C)cn2ncnc2c1C (stereo not shown) [Example 172] : IC50 value = 4.4

Memo: Cc1c(-c2[nH]c3cnc(N4CCC(NCC(C)(C)C)CC4)c(F)c3c2C(C)C)cn2ncnc2c1C , reported IC50: 2.6

For record CNC(=O)CN1CCC(c2cc3c(C(C)C)c(-c4cc(C)c5ncnn5c4)[nH]c3cn2)CC1 the listed IC50 is 2

Lab note: Cc1cc(-c2[nH]c3cnc(C4CCN(CC(=O)N(C)C)CC4)cc3c2C(C)C)cn2ncnc12 gave IC50 of 2.9

The reported value for COc1cc(-c2[nH]c3cnc(C4CCC(NC5COC5)CC4)c(F)c3c2C(C)C)cn2ncnc12 (stereo not shown) [Example 223] in terms of IC50 is 2.7

get_value(item= CNC(=O)CN1CCN(c2ncc3[nH]c(-c4cn5ncnc5c(C)c4C)c(C(C)C)c3c2C)CC1 , readout=IC50) returns 29

In plain terms, CNCC(=O)N1CCC(c2ncc3[nH]c(-c4cc(C)nc(C)c4)c(C(C)C)c3c2F)CC1 has a documented IC50 of 7.5

###

target: human TLR7 (Homo sapiens (Human)); test: TLR7 inhibition reporter assay (HEK-Blue SEAP); settings: HEK-Blue cells overexpressing human TLR7, gardiquimod 7.5 μM stimulation
Would you mind telling me the reported IC50 of each entry?
Express the result in nM but write the number alone.

Item: COc1cc(-c2[nH]c3cnc(C4CCC(NC(C)C)CC4)cc3c2C(C)C)cn2ncnc12 (stereo not shown) [Example 315] | IC50: 7.6

COCCN1CCN(c2ncc3[nH]c(-c4cc(OC)c5ncnn5c4)c(C(C)C)c3c2F)CC1 [Example 361] has a reported IC50 of 3.8

The recorded IC50 for entry COc1cc(-c2[nH]c3cnc(N4CCN(CC(N)=O)C[C@H]4C)c(F)c3c2C(C)C)cn2ncnc12 [Example 447] equals 11

Input CNC(=O)CN1CCC(c2cc3c(C(C)C)c(-c4cn5ncnc5c(C)c4C)[nH]c3cn2)CC1 [Example 27] . Output IC50: 49

COc1cc(-c2[nH]c3cnc(N4CCNCC4)c(Cl)c3c2C(C)C)cn2ncnc12 [Example 6] yielded IC50 of 0.61

Entry under test: Cc1c(-c2[nH]c3cnc(C4CCC(NC(C)C)CC4)c(C)c3c2C(C)C)cn2ncnc2c1C (stereo not shown) [Example 61] . Its IC50 was 28

Record COc1cc(-c2[nH]c3cnc(C4CCC(NCC(C)(C)C)C4)cc3c2C(C)C)cn2ncnc12 (stereo not shown) [Example 60] , field IC50: 5

Lab book: IC50 of Cc1c(-c2[nH]c3cnc(C4CCC(NC56CC(C5)C6)CC4)c(F)c3c2C(C)C)cn2ncnc2c1C (stereo not shown) [Example 238] noted as 62

IC50 measured on COc1cc(-c2[nH]c3cnc(N4CCC(N(C)CC(N)=O)CC4)c(F)c3c2C(C)C)cn2ncnc12 [Example 222] = 3.2

Record COc1cc(-c2[nH]c3cnc(N4CCN(CC(C)(C)O)CC4)c(F)c3c2C(C)C)cn2ncnc12 [Example 364] , field IC50: 2.7

Please fill in: IC50 reported for COc1cc(-c2[nH]c3cnc(C4CCC(NCC(C)(C)F)CC4)c(C)c3c2C(C)C)cn2ncnc12 (stereo not shown) [Example 271] = 1.6

Looking up COc1cc(-c2[nH]c3cnc(C4CCC(NCC5(C)COC5)CC4)c(C)c3c2C(C)C)cn2ncnc12 (stereo not shown) [Example 270] , I found its IC50 recorded as 2.6

For reference, reported IC50 for COc1cc(-c2[nH]c3cnc(N4CCC(NC5CCOC5)CC4)c(F)c3c2C(C)C)cn2ncnc12 (stereo not shown) [Example 190] stands at 0.77

// recorded IC50 for Cc1cc(-c2[nH]c3cnc(C4CCNCC4)c(F)c3c2C(C)C)cc(C)n1 [Example 151] : 1.1

get_value(item= CNC(=O)CN1CC2(C1)CN(c1ncc3[nH]c(-c4cn5ncnc5c(C)c4C)c(C(C)C)c3c1F)C2 [Example 395] , readout=IC50) returns 44

IC50 recorded for this compound, Cc1c(-c2[nH]c3cnc(N4CCN(CC5CCOCC5)CC4)c(F)c3c2C(C)C)cn2ncnc2c1C [Example 411] , is 9.6

// COc1cc(-c2[nH]c3cnc(N4CCNCC4)c(C)c3c2C(C)C)cn2ncnc12 [Example 213] : IC50 value = 1.5

In plain terms, Cc1c(-c2[nH]c3cnc(C4CCC(NC(C)C)CC4)c(F)c3c2C(C)C)cn2ncnc2c1C (stereo not shown) [Example 136] has a documented IC50 of 0.41

Quick note, IC50 for Cc1c(-c2[nH]c3cnc(C4CCNCC4)cc3c2C(C)C)cn2ncnc2c1C [Example 28] landed at 13

Reported IC50 of COc1cc(-c2[nH]c3cnc(C4CCN(CC(F)(F)F)CC4)c(F)c3c2C(C)C)cn2ncnc12 [Example 127] : 47

The recorded IC50 for CCN(C)C1CCC(c2ncc3[nH]c(-c4cc(OC)c5ncnn5c4)c(C(C)C)c3c2C)CC1 (stereo not shown) [Example 116] is 10

compound COc1cc(-c2[nH]c3cnc(N4CCC(NC(C)C)CC4)c(F)c3c2C(C)C)cn2ncnc12 [Example 157] , IC50 observed: 0.8

The compound CNC1CCN(c2ncc3[nH]c(-c4cc(C)c5ncnn5c4)c(C(C)C)c3c2F)CC1 [Example 71] showed IC50 equal to 0.41

// Cc1c(-c2[nH]c3cnc(N4CCN(CCS(C)(=O)=O)CC4)c(F)c3c2C(C)C)cn2ncnc2c1C [Example 398] : IC50 value = 7.2

Record COc1cc(-c2[nH]c3cnc(C4CCN(C5CCOCC5)CC4)c(F)c3c2C(C)C)cn2ncnc12 [Example 217] . Reported IC50: 3.4

Record COc1cc(-c2[nH]c3cnc(N4CCC(NC5COC5)CC4)cc3c2C(C)C)cn2ncnc12 [Example 320] . Reported IC50: 4.4

Per the record, COc1cc(-c2[nH]c3cnc(C4CCNCC4)c(F)c3c2C(C)C)cn2ncnc12 [Example 3] has IC50 of 3.2

Item: COc1cc(-c2[nH]c3cnc(C4CCC(NC5COC5)C4)cc3c2C(C)C)cn2ncnc12 (stereo not shown) [Example 178] | IC50: 7

For reference, reported IC50 for Cc1c(-c2[nH]c3cnc(C4CCC(NC5COC5)CC4)c(C)c3c2C(C)C)cn2ncnc2c1C (stereo not shown) [Example 91] stands at 40

// field: IC50; key: COc1cc(-c2[nH]c3cnc(C4CCC(N5CCC5)CC4)c(F)c3c2C(C)C)cn2ncnc12 (stereo not shown) [Example 46] ; value = 0.98

# IC50 (compound: COc1cc(-c2[nH]c3cnc(N4CCN(CC(=O)N(C)C)CC4)c(C)c3c2C(C)C)cn2ncnc12 [Example 252] ) is 6.4
